target: T1, c-erbB-2 ECD with a Ser-Gly-His6 C-terminal fusion (UniProt P04626 23-652); experiment: SPR BIAcore
T1 construct: extracellular domain; Expressed from CHO cells, IMAC purified; coupled to a CM5 chip, coated on plates, or biotinylated with NHS-LC-biotin; also called c-erbB-2 extracellular domain; biotinylated c-erbB-2 ECD
Kd (parent)/Kd (mut): recorded values

Example cases with answers are listed next.
Binder	Kd (parent)/Kd (mut)
C6-B1D2 (scFv, Combined B1 and D2 mutations on C6ML3-9) scFv: QVQLLQSGAELKKPGESLKISCKGSGYSFTSYWIAWVRQMPGKGLEYMGLIYPGDSDTKYSPSFQGQVTISVDKSVSTAYLQWSSLKPSDSAVYFCARHDVGYCTDRTCAKWPEWLGVWGQGTLVTVSSGGGGSGGGGSGGGGSQSVLTQPPSVSAAPGQKVTISCSGSSSNIGNNYVSWYQQLPGTAPKLLIYGHTNRPAGVPDRFSGSKSGTSASLAISGFRSEDEADYYCASWDYTLSGWVFGGGTKLTVLG	8
C6-B1D5 (scFv, Combined B1 and D5 mutations on C6ML3-9) scFv: QVQLLQSGAELKKPGESLKISCKGSGYSFTSYWIAWVRQMPGKGLEYMGLIYPGDSDTKYSPSFQGQVTISVDKSVSTAYLQWSSLKPSDSAVYFCARHDVGYCTDRTCAKWPEWMQMWGQGTLVTVSSGGGGSGGGGSGGGGSQSVLTQPPSVSAAPGQKVTISCSGSSSNIGNNYVSWYQQLPGTAPKLLIYGHTNRPAGVPDRFSGSKSGTSASLAISGFRSEDEADYYCASWDYTLSGWVFGGGTKLTVLG	3.4
C6-9L1 (scFv, C6L1 with the VL CDR3 of C6ML3-9) scFv: QVQLLQSGAELKKPGESLKISCKGSGYSFTSYWIAWVRQMPGKGLEYMGLIYPGDSDTKYSPSFQGQVTISVDKSVSTAYLQWSSLKPSDSAVYFCARHDVGYCSSSNCAKWPEYFQHWGQGTLVTVSSGGGGSGGGGSGGGGSQSVLTQPPSVSGAPGQWVTISCSGSSSNIGNNYVSWYQQLPGTAPKLLIYDNNKRPSGVPDRFSGSQSGTSASLAISGLRSEDEADYYCASWDYTLSGWVFGGGTKLTVLG	3

Q: // Kd (parent)/Kd (mut) lookup, key: C6-B47D5 (scFv, Combined B47 and D5 mutations on C6ML3-9) scFv: QVQLLQSGAELKKPGESLKISCKGSGYSFTSYWIAWVRQMPGKGLEYMGLIYPGDSDTKYSPSFQGQVTISVDKSVSTAYLQWSSLKPSDSAVYFCARHDVGYCTDRSCAKWPEWMQMWGQGTLVTVSSGGGGSGGGGSGGGGSQSVLTQPPSVSAAPGQKVTISCSGSSSNIGNNYVSWYQQLPGTAPKLLIYGHTNRPAGVPDRFSGSKSGTSASLAISGFRSEDEADYYCASWDYTLSGWVFGGGTKLTVLG
Result: 1.7

Q: // Kd (parent)/Kd (mut) lookup, key: C6-B1D3 (scFv, Combined B1 and D3 mutations on C6ML3-9) scFv: QVQLLQSGAELKKPGESLKISCKGSGYSFTSYWIAWVRQMPGKGLEYMGLIYPGDSDTKYSPSFQGQVTISVDKSVSTAYLQWSSLKPSDSAVYFCARHDVGYCTDRTCAKWPEWLDNWGQGTLVTVSSGGGGSGGGGSGGGGSQSVLTQPPSVSAAPGQKVTISCSGSSSNIGNNYVSWYQQLPGTAPKLLIYGHTNRPAGVPDRFSGSKSGTSASLAISGFRSEDEADYYCASWDYTLSGWVFGGGTKLTVLG
Result: 9.2

Q: // Kd (parent)/Kd (mut) lookup, key: C6-B47D2 (scFv, Combined B47 and D2 mutations on C6ML3-9) scFv: QVQLLQSGAELKKPGESLKISCKGSGYSFTSYWIAWVRQMPGKGLEYMGLIYPGDSDTKYSPSFQGQVTISVDKSVSTAYLQWSSLKPSDSAVYFCARHDVGYCTDRSCAKWPEWLGVWGQGTLVTVSSGGGGSGGGGSGGGGSQSVLTQPPSVSAAPGQKVTISCSGSSSNIGNNYVSWYQQLPGTAPKLLIYGHTNRPAGVPDRFSGSKSGTSASLAISGFRSEDEADYYCASWDYTLSGWVFGGGTKLTVLG
Result: 2.5
